Target: ntd-HSP90 mutant S50C/D54C tagged with CLaNP-5 (Homo sapiens, UniProt P07900, D54C/S50C)
Construct: Three double cysteine mutants of the ntd-HSP90 were designed on the surface of the protein; CLaNP-5 (chemical lanthanoid chelate with Lu3+ or Yb3+, attached to the two engineered Cys); made in house
Experiment: NMR methyl 13C-1H HSQC titration fitted with TITAN, 1:1 binding model
Conditions: mutant 50C/54C, CLaNP-5 tagged; five methyl groups; range of values from repeated global fits; 298 K, pH 7.7; read-out: KD
pKd: −log10 of the molar value.
value_type: pKd

Documented pKd of Nc1nccc(-c2ccccc2F)n1 : 3.62 to 3.71
